# System: OVCAR-8 ovarian
# assay-name: NCI-60 one-dose screen, 48 h (100 = growth as untreated, 0 = no growth, -100 = all killed)
# particulars: 10 µM
# Procedure: Growth inhibition of the OVCAR-8 human tumor cell line is measured as a screen for anti-cancer activity. Cells are grown in 96 well plates and exposed to the test compound for 48 hours. Compounds are tested at a single concentration, which is 10^-5 M for most compounds. The reported endpoint is percent growth (GI% or GIPRCNT), where numbers from 0 - 100% represent growth inhibition, and numbers from -100% - 0 represent cell death. For example, a value of 40 represents 60% growth inhibition. […]
This is part of a sample that, as a whole, favours compounds with a hit. Of some 83,000 tested, about 20% had one in any assay. Calls of active or inactive are those of the source. The calls were made as follows: active = growth percent below 10; inactive = the rest.
measured-metric: growth

Task: What value of growth on OVCAR-8 ovarian does CN(C)CCCOc1ccccc1NC1=C(Cl)C(=O)C(Nc2ccccc2OCCCN(C)C)=C(Cl)C1=O have?
Output: -84.3% (active)

Task: Report growth for CC(=O)/C(=C/c1ccc(Br)cc1)C(=O)c1ccccc1 tested on OVCAR-8 ovarian.
Output: 63.7% (inactive)

Task: Param readout = growth; param system = OVCAR-8 ovarian; param query = CNC(=O)c1cn(C2CC2)c2cc(N3CCN(C(=O)c4cc(OC)c(OC)c(OC)c4)CC3)c(F)cc2c1=O ; response: value
Output: 100% (inactive)

Task: What reported growth corresponds to Nc1cc(-c2ccc(Cl)cc2)nn1-c1nc2ccccc2nc1Cc1ccccc1 on OVCAR-8 ovarian?
Output: 91.2% (inactive)

Task: Observed growth on OVCAR-8 ovarian for CCCCN(CCCC)C(=O)[C@H](CC)[C@@H]1CC[C@@H](C)[C@@H]([C@H](C)[C@@H](O)[C@@H](C)C(=O)[C@H](CC)C2O[C@]3(C=C[C@@H](O)[C@]4(CC[C@@](C)([C@H]5CC[C@](O)(CC)[C@H](C)O5)O4)O3)[C@H](C)C[C@@H]2C)O1 (some centres not stated) , please.
Output: 12.5% (inactive)

Task: API: value(readout=growth, system=OVCAR-8 ovarian) for record CCCCC/C=C/C/C=C/CCCCCCCC1=NC(C)(C)CN1C(C)C
Output: 28.3% (inactive)

Task: Tell me reported growth for CC(C)(C)OC(=O)CN1CCc2c(sc3ncnc(N/N=C/c4ccccc4Br)c23)C1 , tested with OVCAR-8 ovarian.
Output: 61.5% (inactive)

Task: Given the entry COc1ccc(/C=C2\CCCC3C2=Nc2ccccc2NC3c2ccc(OC)cc2)cc1 (configuration not stated) , what growth was observed with OVCAR-8 ovarian?
Output: 85.1% (inactive)

Task: Notebook entry, OVCAR-8 ovarian assay: growth of CCCCc1oc2ccccc2c1C(=O)c1cc(I)c(OCCN(CC)CC)c(I)c1 = ?
Output: -10% (active)

Task: Quick check: growth on OVCAR-8 ovarian, item CCOC(=O)/C(=C(\C)N)C1CC(=O)NC1=O (configuration not stated) ?
Output: 99.7% (inactive)

Task: Identify the measured growth of COc1cccc(-c2nc3sccn3c2-c2cccc(S(C)(=O)=O)c2)c1 for OVCAR-8 ovarian.
Output: 101% (inactive)

Task: growth of O=C(CCCSc1nc(-c2ccc(Cl)cc2)cc(-c2ccc(Cl)cc2)n1)NO on OVCAR-8 ovarian?
Output: 13.7% (inactive)

###

# Tested on: PC-3 prostate
# assay-name: NCI-60 one-dose screen, 48 h (100 = growth as untreated, 0 = no growth, -100 = all killed)
# particulars: 10 µM
This is part of a sample that, as a whole, favours compounds with a hit. Of some 83,000 tested, about 20% had one in any assay.
I would appreciate it if you labelled entries TRUE when growth is 80% or higher, otherwise FALSE.

Task: Confirm if growth reported for the compound COc1cc(-c2nn(-c3ccc(NC(=O)NCCNS(=O)(=O)c4ccc(F)cc4)cc3)cc2-c2ccncc2)ccc1Cl is 80% or above.
Output: FALSE

Task: For this compound, is measured growth 80% or higher? CCOC(=O)C1C(C(=O)OCC)C2C(=O)C3C(C(=O)OCC)C(C(=O)OCC)C3C(=O)C12 (stereo unspecified)
Output: TRUE

Task: Does CCNCC(=O)Nc1ccc(C(=O)OCC)cc1 have a reported growth of at least 80%?
Output: TRUE

Task: Evaluate CN1CCN(CCC(=O)Nc2cccc(-n3cc(-c4ccncc4)c(-c4ccc(Cl)c(O)c4)n3)c2)CC1 : growth at minimum 80%?
Output: FALSE

Task: Hi team, for OCC1OC(n2ccc3c(NO)ncnc32)C(O)C1O (stereo unspecified) , is the recorded growth at or above 80%?
Output: FALSE

Task: Has COc1ccc(-c2nn(-c3cccc(Cl)c3)cc2-c2cc(-c3ccccc3)[nH]c(=O)c2C#N)cc1 a recorded growth greater than or equal to 80%?
Output: FALSE

Task: # check: growth of CCN(CCCNc1cc2c(c(N)c1S(=O)(=O)O)C(=O)c1ccccc1C2=O)c1ccccc1 is greater than or equal to 80%
Output: TRUE

Task: Confirm if growth reported for the compound COc1ccc2c(c1)C(CC(=O)NN)CCC2 (stereo unspecified) is 80% or above.
Output: TRUE

Task: I'd appreciate it if you could say whether CC(C)N(CCOc1ccc(-c2nc3sccn3c2-c2ccnc(S(C)(=O)=O)n2)cc1)C(C)C has growth at least equal to 80%.
Output: FALSE

Task: Hi team, for CCN(CC)CCCC(C)N=C(C1=C(C(=NC(C)CCCN(CC)CC)c2cccc(OC)c2)C(=O)NC1=O)c1cccc(OC)c1 (stereo unspecified) , is the recorded growth at or above 80%?
Output: FALSE

Task: Check the entry CS(=O)(=O)c1nccc(-c2c(-c3cccc(O)c3)nc3sccn23)n1 : does growth equal or exceed 80%?
Output: TRUE

Task: Entry Nc1nccc(OCCO)n1 : is its growth no less than 80%?
Output: TRUE

Task: Is the recorded value of growth equal to or greater than 80% for this compound? O=C(CSc1nnc(-c2ccc(Cl)cc2)o1)Nc1ccc(C(=O)/C=C/c2ccc(Cl)cc2)cc1
Output: TRUE

Task: Identify whether the reported growth of the following compound is 80% or greater: O=c1c(Br)ccc(Br)cc1Br
Output: FALSE

Task: Form field: growth at least 80%? Entry: Cc1nn(-c2ccc(-c3ccc(OC(F)(F)F)cc3)cc2)c2nc(Cc3ccccc3)nc(N)c12
Output: FALSE

Task: Could you please find out whether O=C(O)c1cc([N+](=O)[O-])ccc1Oc1ccccc1 has growth that meets 80% or exceeds it?
Output: TRUE

Task: Reported growth at or above 80%? O=C(CI)OCC(COC(=O)CI)OC(=O)CI
Output: TRUE

Task: Kindly determine if growth recorded for CCOC(=O)c1cc(C(=O)c2ccc(Cl)cc2)n2ccc(-c3cc[n+](CC(=O)c4ccc(OC)cc4)cc3)cc12 is above or exactly 80%.
Output: FALSE

Task: Confirm if growth reported for the compound N#Cc1c(-c2ccc(Cl)cc2)csc1NC(=O)Nc1ccc(Cl)c(C(F)(F)F)c1 is 80% or above.
Output: FALSE

###

# Tested on: SK-MEL-5 melanoma
# assay-name: NCI-60 one-dose screen, 48 h
# particulars: 10 µM
Compounds without any hit were thinned out: in the full panel of roughly 83,000, 20% have a hit. The source made the active and inactive calls. Rule for the calls: active = growth percent below 10; inactive = the rest.
# valid calls are active, inactive; nothing else

Task: Status in this test for S=C(SSC(=S)N(c1ccccc1)c1ccccc1)N(c1ccccc1)c1ccccc1 ?
Output: inactive

Task: Check the results log: what was the call for Cc1ccc(Cl)cc1NC(=O)CCl ?
Output: inactive

Task: How was CN(C)c1ncnc2c1nnn2C1OC(CO)C(O)C1O (stereo not given) classified in this test?
Output: active

Task: How was O=C1c2ccccc2-c2c1c1cccnc1c(=O)n2C[C@H](O)CO classified in this test?
Output: inactive

Task: Which result was noted for this compound in the test: Cc1ccc(-n2c(C)nn3c(=O)c4c5c(sc4nc23)CN(C)CC5)cc1
Output: inactive

Task: Returns: the outcome recorded for O=C1NC(=O)c2c(CCCSc3nc4ccccc4c(=O)n3CCc3ccccc3)cccc21 in this assay.
Output: inactive

Task: Please let me know the test result on file for O=C(O)c1ccc(-n2cc(CNc3ccc(Cl)cc3)c(-c3ccccc3)n2)cc1 .
Output: inactive

Task: Assay result, entry CNC(=O)c1cc(Oc2ccc3c(c2)sc2nc(-c4ccc(N)cc4)cn23)ccn1 — outcome?
Output: active

Task: Record lookup: outcome of this test for CCN(CC)CCOc1cccc2c1C(=O)c1ccccc1C2=O ?
Output: inactive

Task: // return assay outcome for C[C@@H](O)[C@H]1C(=O)N2C(C(=O)O)=C(SC3CN[C@H](C(=O)N(C)C)C3)[C@H](C)[C@H]12 (stereo not given in full)
Output: inactive
